# assayed-target: CaCyk3
# assay-info: SPOT peptide array binding signal intensity (averaged, normalized) (arbitrary units (background-subtracted, floor 0; scale differs between SH3 domains)); higher = stronger binding of the SH3 domain to the peptide
measured-endpoint: SPOT peptide array binding signal intensity
Please give only the number in your answer, with no unit.

Some solved cases for reference:
binder: RLSRLLLSLPPESFT
recorded-result: 17
--
binder: ILARAILTIPRVLDK
recorded-result: 35
--
binder: GAGERPRLVPRPINV
recorded-result: 285
--
binder: NQARKPFLLPATELS
recorded-result: 1
--
binder: NILKRRPLKLEAPSK
recorded-result: 8

Item under review: "KFIPSRPAPKPPSSA" . Reported SPOT peptide array binding signal intensity? 46

And what about the binder "NNQRRKPLLLNIGDH" ? 1.5
